Give pIC50 for every item shown.
- Target of assay: Bromodomain-containing protein 4 (Homo sapiens, UniProt O60885)
- Assay text: Inhibition of recombinant His-tagged BRD4 bromodomain 1 (unknown origin) after 10 mins by TR-FRET assay
Give bare numbers, as −log10 of the molar value.

Worked examples follow.
>  <Structure>
C=CCCn1cc(-c2cccc(C(=O)N3CCN(CCO)CC3)c2)c2cc[nH]c2c1=O

>  <pIC50>
5.49

$$$$
>  <Structure>
C=CCCn1cc(-c2cc(OC(F)F)cc(C(=O)N3CCOCC3)c2)c2cc[nH]c2c1=O

>  <pIC50>
6.22

$$$$
>  <Structure>
C=CCCn1cc(-c2cc(C(=O)N3CCOCC3)c3c(c2)ncn3C)c2cc[nH]c2c1=O

>  <pIC50>
5.44

$$$$
>  <Structure>
C=CCCn1cc(-c2cnc(OC)c(C(=O)N3CCOCC3)c2)c2cc[nH]c2c1=O

>  <pIC50>
5.07

$$$$

Next:
Lookup: Specify measured pIC50 for C=CCCn1cc(-c2cc(C(=O)N3CCOCC3)c3ncn(C)c3c2)c2cc[nH]c2c1=O .
Found: 5.09
